Record form. Attribute: growth. Fill in for each entry.
- Tested on: HT29 colon
- method summary: NCI-60 one-dose screen, 48 h (100 = growth as untreated, 0 = no growth, -100 = all killed)
- test conditions: 10 µM unless noted
This is part of a sample that, as a whole, favours compounds with a hit. Of some 83,000 tested, about 20% had one in any assay.
Write down the numeric answer in % and omit the unit.

Please give the measured growth for this compound: CN1CCCCC1CCN1c2ccccc2Sc2ccc(Br)cc21 (centres undefined)
29.8

Please give the measured growth for this compound: `CCCCN(CC)CCCCCCCCCCN1CCCc2cc(OC)ccc21`
19.2

Please give the measured growth for this compound: `O=c1c2cccc3c(Nc4c(F)cccc4F)ccc(c32)c2nc3ccccc3n12`
93.4

Please give the measured growth for this compound: `COc1ccc(-c2nc(Nc3cc(C)[nH]n3)c3ccccc3n2)cc1`
17.4

Please give the measured growth for this compound: `COc1ccc(Cl)cc1Nc1nc(C(F)(F)F)ccc1C(=O)N/N=C/c1cccnc1`
49.6

Please give the measured growth for this compound: `COc1ccc(/C=N\NC(=O)c2ccncc2)cc1O`
112

Please give the measured growth for this compound: `Nc1c(C(=O)Nc2ccccc2)sc2nc3c(cc12)CN(CCc1ccccc1)CC3`
104

Please give the measured growth for this compound: `C[C@@]1(N2C(=O)OC[C@@H]2c2ccccc2)C(=O)N([C@H](CC(=O)N2CCC(N3CCCCC3)CC2)C(=O)NCc2cccc(C(F)(F)F)c2)[C@@H]1/C=C/c1ccccc1`
-3.04

Please give the measured growth for this compound: `O=C(CN1CCN(c2cc3c(cc2F)c(=O)c(C(=O)O)cn3C2CC2)CC1)Nc1nc(-c2ccc(Cl)cc2)cs1`
10.4

###

- Test system: RXF 393 renal
- method summary: NCI-60 one-dose screen, 48 h
- test conditions: 10 µM unless noted
Compounds without any hit were thinned out: in the full panel of roughly 83,000, 20% have a hit. Activity calls are given as the source filed them. The calls were made as follows: active = growth percent below 10; inactive = the rest.
Please state which outcome applies, choosing from T for active, F for inactive

Entry CCC(C)[C@@H]1NC(=O)[C@@H]2CCCN2C(=O)[C@H](Cc2ccccc2)NC(=O)[C@@H]2CCCN2C(=O)[C@H](Cc2ccccc2)NC(=O)[C@@H]2CCCN2C(=O)[C@H](Cc2ccccc2)NC1=O (stereo partly drawn) : call = ?
F

Entry ClC1=C2NC=NC2n2c(nnc2-c2ccc(Cl)cc2)N1 (stereo not drawn) : call = ?
F

Entry `O=C([C@@H](COCc1ccccc1)N1C(=O)[C@@H](N2C(=O)OC[C@@H]2c2ccccc2)[C@H]1/C=C/c1ccccc1)N1CCC(CCN2CCCCC2)CC1` : call = ?
F

Entry `Cc1cc2cc3cc(C)c(N(C)C)cc3nc2cc1N(C)C` : call = ?
F

Entry CC(=O)OC1Oc2cc(C)c(C)cc2-c2oc(=O)c(-c3cc4ccc(N(C)C)cc4oc3=O)cc21 (stereo not drawn) : call = ?
F

Entry `O=C(CN1CCOCC1)Nc1ccc(Cn2nnc3c2C(=O)c2nnn(Cc4ccc(NC(=O)CN5CCOCC5)cc4)c2C3=O)cc1` : call = ?
T

Entry CS(=O)CCCCCN=C=S (stereo not drawn) : call = ?
T

Entry `Cn1c2ccccc2c2c3c(c4c5ccccc5[nH]c4c21)C(=O)N(N)C3=O` : call = ?
F

Entry `CCCCCCCCCCNC(=O)CCl` : call = ?
F

Entry `COc1cc(OC)c(/C=C/S(=O)(=O)Cc2cnc(OC)c(N)c2)c(OC)c1` : call = ?
F

Entry `Cc1cc(N/N=C/c2nc(-c3ccc(Cl)cc3)oc2C)c2cc(Br)ccc2n1` : call = ?
F

Entry `c1ccc(CSc2ncnc3nc[nH]c23)nc1` : call = ?
F

Entry COc1ccc2nc3cc(Cl)ccc3c(NCCNCC(O)CO)c2c1 (stereo not drawn) : call = ?
T

Entry `c1ccc2c(Nc3cccc4ccccc34)cccc2c1` : call = ?
F

Entry `CC(C)(C)n1cc(-c2ccnc(NCCNS(=O)(=O)c3ccccc3)c2)c(-c2cccc(O)c2)n1` : call = ?
F

Entry `CC[C@H](Nc1ncnc(N)c1C(N)=O)c1nc2cccc(NCc3ccc(C(=O)NO)cc3)c2c(=O)n1-c1ccccc1` : call = ?
F

Entry `CCN1CCN(Cc2ccc(NC(=O)Nc3nc4ccc(Oc5ccnc(C(=O)NC)c5)cc4s3)cc2C(F)(F)F)CC1` : call = ?
T

Entry `CCN(CC)CC(C)(C)C(=O)/C=C/c1ccccc1` : call = ?
F

Entry `CC/C=C\C[C@H](O)C/C=C1/C(=O)C=C[C@@H]1C/C=C\CCCC(=O)NC(C)C` : call = ?
T

Entry `COc1cccc(NC(=O)c2sc3nc4c(cc3c2N)CN(Cc2ccccc2)CC4)c1` : call = ?
F

Entry `COc1ccc(/C=C2\CN(C(=O)CCN3CCC(=NO)CC3)C/C(=C\c3ccc(OC)cc3)C2=O)cc1` : call = ?
T

Entry `O=[N+]([O-])c1cccc(-c2nc3sccn3c2-c2ccnc(NCCCNS(=O)(=O)c3ccc(Br)cc3)n2)c1` : call = ?
F

Entry `O=[N+]([O-])c1cccc(-c2nc3sccn3c2-c2ccnc(NCCNS(=O)(=O)c3ccc(C(F)(F)F)cc3)n2)c1` : call = ?
F

Entry `O=C(CCCN1CCOCC1)Nc1ccc(Cn2nnc3c2C(=O)c2nnn(Cc4ccc(NC(=O)CCCN5CCOCC5)cc4)c2C3=O)cc1` : call = ?
F

Entry `Cc1cc(=O)oc2cc(Oc3nc(-c4cccs4)cn4c(-c5cccs5)cnc34)ccc12` : call = ?
F

Entry CCCCCCCCCCCCCC(=O)C(C)N (stereo not drawn) : call = ?
F

Entry `NCc1cn2cc(Cl)sc2n1` : call = ?
F

Entry `CC(C)(C)c1nn(-c2ccccc2)c2c1CC1(CN2Cc2ccc3c(c2)OCO3)C(=O)c2ccccc2C1=O` : call = ?
F

Entry `COc1ccc(CN2C(=O)/C(=C\c3cc(OC)c(OC)c(OC)c3)c3cc(OC)ccc32)cc1` : call = ?
T

Entry `CCN(C(=O)CN1CCN(c2cc3c(cc2F)c(=O)c(C(=O)O)cn3CC)CC1)c1nc(-c2ccccc2)cs1` : call = ?
T

Entry `CC/C(=C(\c1ccc(O)cc1)c1ccc(OCCN(C)CCN(C)C(=O)CCCCC(=O)c2c(C)[nH]c(/C=C3\N=C(c4ccc[nH]4)C=C3OC)c2C)cc1)c1ccccc1` : call = ?
F

Entry `COc1cc(NCCCCN=C(N)N)c2ncccc2c1` : call = ?
F

Entry `O=[N+]([O-])c1cccc(-c2nc3sccn3c2-c2ccnc(NCCCNS(=O)(=O)c3ccc(F)cc3)n2)c1` : call = ?
F

Entry COCCOC(=O)C1=C(C)NC(=S)NC1c1ccc2c(c1)OCO2 (stereo not drawn) : call = ?
F

Entry `Oc1cc(O)c2c(=S)cc(-c3ccc(Cl)cc3)oc2c1` : call = ?
F

Entry `COc1cnc2c(c1)C(=O)c1c-2n(CCCN2CCNCC2)c(=O)c2cc([N+](=O)[O-])ccc12` : call = ?
T

Entry `O=C(/C=C/c1cccc(Br)c1)c1ccccc1` : call = ?
F

Entry `CCCCOc1ccc(NC(=O)n2nc(NC(C)=O)c3cc(NC(C)=O)ccc32)cc1` : call = ?
F

These data points were gathered from PubChem BioAssay (NCI).
